Measured values drawn from PubChem BioAssay for this set.

Here, each record is paired with measured composite z-score data.
- test-system: Calmodulin-1 (Homo sapiens)
- experiment-description: CALM1 binders on microarrays, EGTA buffer, profiling panel, biochemical, small-molecule microarray, Cy5-labelled CALM1 (AID 1111);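 further: labelled calmodulin applied in Tris saline Tween buffer holding calcium plus EGTA and DTT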
- condition-label: Cy5-CALM1 binding fluorescence, higher = more signal
Form field (numeric): enter value without unit.

Look over these answered cases.
>>> experimental_result("COc1ccc([Si](C)(C)[C@@H]2[C@@H](CCO)O[C@]3(C(=O)N(Cc4ccccc4)c4ccccc43)[C@H]2C)cc1")
0.398
>>> experimental_result("CCCN1C(=O)[C@@]2(CCS(=O)(=O)c3ccccc3)N=C(c3ccc(OCCCO)cc3)O[C@H]2c2ccccc21")
0.248
>>> experimental_result("O=C1O[C@@H](c2ccccc2)[C@@H](c2ccccc2)N2[C@@H](c3ccc(O)cc3)[C@]3(C(=O)Nc4ccccc43)[C@@H](C(=O)N3CCN(c4ncccn4)CC3)[C@H]12")
0.874
>>> experimental_result("C=CCN1C(=O)[C@@]2(Cc3ccccc3)N=C(c3ccc(OCCCO)cc3)O[C@H]2c2ccccc21")
0.0185
>>> experimental_result("C=C(COC)C(=O)CC[C@H](OC(=O)c1ccccc1-c1ccccc1C(=O)O)c1cccc(OCCO)c1")
3.03
>>> experimental_result("CN(C)CCCC[C@@H]1NC(=O)[C@@H]2C[C@H](C(=O)O)[C@H](c3ccc(O)cc3)N2C1=O")
-0.0922

Request: Please report the recorded composite z-score for `COCCOC(=O)N1C(=O)[C@@]2(c3ccccc31)[C@H](C(=O)N1CCc3cc(OC)c(OC)cc3C1)[C@H]1C(=O)O[C@H](c3ccccc3)[C@H](c3ccccc3)N1[C@@H]2c1ccccc1OCCO` .
Result: 1.25

Request: Now the same for `CO[C@@H]1COC(=O)CC=C[C@H](C)COC(=O)[C@H](Cc2ccccc2)NC(=O)CC=C[C@H]1C`
Result: -1.59

Request: For `C=CC[C@]1(C(=O)N2CCCCC2)N=C(c2ccc(OCCCO)cc2)O[C@H]1c1ccccc1N=[N+]=[N-]` then?
Result: 2.16

Request: What do you get for `O=C1O[C@@H](c2ccccc2)[C@@H](c2ccccc2)N2[C@@H](c3ccc(O)cc3)[C@]3(C(=O)Nc4ccc(C#CC5(O)CCCCCC5)cc43)[C@@H](C(=O)Nc3nc4ccccc4s3)[C@H]12` ?
Result: 0.395

Request: Param item: `C=CCOC(=O)[C@@H]1[C@H]2C(=O)O[C@H](c3ccccc3)[C@H](c3ccccc3)N2[C@H](c2ccc(OCCOC(=O)[C@H]3C[C@H]4C(=O)N[C@@H](CCCCNC(C)=O)C(=O)N4[C@H]3c3ccc(O)cc3)cc2)[C@@]12C(=O)Nc1ccc(I)cc12`
Result: 0.419

* * *

# composite z-score per entry
- System: Plasmodium falciparum Sir2 (PF13_0152, Sir2A)
- experiment-description: pfSir2 binders on small-molecule microarrays, primary screen, biochemical, small-molecule microarray, 635 nm fluorescence (AID 1098);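 further: score merges spot fluorescence intensity with its signal-to-noise ratio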
- condition-label: small-molecule microarray binding, fluorescence 635 nm; higher = more signal
Quick one: just the number, no unit, thanks!

Sample records with composite z-score:
>>> experimental_result("CCOC(=O)C[C@H]1[C@H](OC(=O)c2cc3ccccc3oc2=O)[C@@H](NC(=O)C2CCCCC2)c2cc(OCCCO)ccc2N1C(=O)c1ccc2ccccc2n1")
0.631
>>> experimental_result("CC(C)(C)OC(=O)CC[C@]1(C(=O)N2CCCCC2)N=C(c2ccc(OCCCO)cc2)O[C@H]1c1ccccc1")
1.73
>>> experimental_result("CC(=O)NCCCC[C@@H]1NC(=O)[C@H]2C[C@@H](C(=O)NCCCCCCN(C)C)[C@@H](c3cccc(OCCO)c3)N2C1=O")
1.5
>>> experimental_result("CCCNC(=O)[C@@H]1c2ccccc2C(=O)N(C2CCCCC2)[C@H]1c1ccc(CO)cc1")
0.941
>>> experimental_result("CO[C@H]1COC(=O)[C@@H](C)COC(=O)[C@H](Cc2ccccc2)NC(=O)CC=C[C@H]1C")
0.7
>>> experimental_result("COc1cccc([C@H]2N[C@H](C(=O)O)CC[C@@H]2C)c1")
-0.406

Request: Fill blank: measured composite z-score of the molecule `COCCOC(=O)N1C(=O)[C@@]2(c3cc(C#CCCO)ccc31)[C@H](c1ccc(OCCO)cc1)N1[C@H](c3ccccc3)[C@H](c3ccccc3)OC(=O)[C@H]1[C@@H]2C(=O)NC[C@H](O)c1ccccc1` is ____.
Result: 1.3

Request: Next up: `C#CCCCON=C1C[C@@H](O)[C@@H](O)[C@@H]2[C@@H]3C(=O)N(Cc4ccc5c(c4)OCO5)C(=O)[C@@H]3CC[C@H]12`
Result: 0.419

Request: And for C[C@@H]1NC(=O)[C@H](Cc2ccccc2)NC(=O)[C@@]23C(=O)N[C@@H](Cc4ccccc4)C2[C@H](C)[C@@]2(C)O[C@H]2C3/C=C/C/C=C\CNC1=O (stereo partly drawn) ?
Result: 1.04

Request: Can you handle `COCCOC(=O)N1C(=O)[C@@]2(c3cc(C#CCC(C(=O)OC)C(=O)OC)ccc31)[C@H](c1ccccc1OCCO)N1[C@H](c3ccccc3)[C@H](c3ccccc3)OC(=O)[C@H]1[C@@H]2C(=O)N1CCCCCCC1` next?
Result: 0.853
